test system: Candida glabrata; experiment: MIC/MFC broth microdilution (CLSI); conditions: Nakaseomyces glabratus, CBS138;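 further: broth microdilution following CLSI M27-Ed4, MFC taken as the lowest drug level yielding no growth once MIC wells were subcultured on SDA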
Each record is given yes (1) if its reported MFC is strictly below 30 µg/mL. Records at or above 30 µg/mL are given no (0).

INSERT INTO assay_data (molecule, group_label) VALUES
  ('CCCCCCCCCCn1cc[n+](CC(O)(P(=O)(O)O)P(=O)(O)O)c1 [10-ZOL, Decyl-zoledronate]', 'yes (1)'),
  ('CCC(C)n1ncn(-c2ccc(N3CCN(c4ccc(OCC5COC(Cn6cncn6)(c6ccc(Cl)cc6Cl)O5)cc4)CC3)cc2)c1=O (centres unmarked)', 'yes (1)'),
  ('CCCCCCCCCN1CCC[C@H]1C(=O)N[C@@H](CC(=O)O)C(=O)O', 'no (0)');

Next molecule, please.
In: Say whether its MFC is strictly beneath 30 µg/mL. Entry: "CCCCCCCCCCN1CCC[C@H]1C(=O)N[C@H](CC(=O)OC)C(=O)OC"
Out: no (0)

====

system: Aspergillus fumigatus; test: checkerboard drug interaction (FICI, MICc);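 further: simplified diagonal checkerboard screen pairing antifungals with FPPS inhibitors against Aspergillus fumigatus, with FICI calculated under the Loewe additivity model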; format: cell-based; details: A. fumigatus; KET:INH combination; fold decrease of KET MIC
Some compounds, each annotated with its measured KET FD (MIC-MICc fold decrease).
Output spec: single numeric token, no unit.

INSERT INTO measurements (compound, quantity_name, value_observed) VALUES
  ('CCCCCCCCCCN1CCC[C@H]1C(=O)N[C@@H](CC(=O)OC)C(=O)OC [dmPLA10]', 'KET FD (MIC-MICc fold decrease)', 4),
  ('CCCCCCCCCCCN1CCC[C@H]1C(=O)N[C@@H](CC(=O)O)C(=O)O [PLA11]', 'KET FD (MIC-MICc fold decrease)', 1),
  ('CCCCCCCCCN1CCC[C@H]1C(=O)N[C@@H](CC(=O)O)C(=O)O [PLA9]', 'KET FD (MIC-MICc fold decrease)', 1);

In: # KET FD (MIC-MICc fold decrease) lookup, item O=P(O)(O)C(O)(Cn1ccnc1)P(=O)(O)O [ZOL, zoledronate]
Out: 2

In: // query KET FD (MIC-MICc fold decrease) value for entry CCCCCCCCCN1CCC[C@H]1C(=O)N[C@@H](CC(=O)OC)C(=O)OC [dmPLA9]
Out: 1

====

test system: Cryptococcus neoformans; assay: checkerboard drug interaction (FICI, MICc); type: cell-based; settings: C. neoformans; FLC:INH combination; fold decrease of FLC MIC
quantity.name: FLC FD (MIC-MICc fold decrease)
// no unit string in output, number only

Below, each entry is followed by its recorded FLC FD (MIC-MICc fold decrease) result.
INSERT INTO results (molecule, quantity_name, value_observed) VALUES
  ('CCCCCCCCCCN1CCC[C@H]1C(=O)N[C@H](CC(=O)OC)C(=O)OC [dmPDA10]', 'FLC FD (MIC-MICc fold decrease)', 4),
  ('CCCCCCCCCN1CCC[C@H]1C(=O)N[C@H](CC(=O)OC)C(=O)OC [dmPDA9]', 'FLC FD (MIC-MICc fold decrease)', 1),
  ('CCCCCCCCCCCN1CCC[C@H]1C(=O)N[C@@H](CC(=O)OC)C(=O)OC [dmPLA11]', 'FLC FD (MIC-MICc fold decrease)', 1),
  ('CCCCCCCCCCCCN1CCC[C@H]1C(=O)N[C@H](CC(=O)O)C(=O)O [PDA12]', 'FLC FD (MIC-MICc fold decrease)', -4),
  ('CCCCCCCCCN1CCC[C@H]1C(=O)N[C@@H](CC(=O)OC)C(=O)OC [dmPLA9]', 'FLC FD (MIC-MICc fold decrease)', -4);

In: Would you kindly share the measured FLC FD (MIC-MICc fold decrease) for O=P(O)(O)C(O)(Cn1ccnc1)P(=O)(O)O [ZOL, zoledronate] ?
Out: 4

In: Requested field: FLC FD (MIC-MICc fold decrease). Item: CCCCCCCCCCCCN1CCC[C@H]1C(=O)N[C@H](CC(=O)OC)C(=O)OC [dmPDA12]
Out: 4
